SYSTEM: porcine PDHc E1 (Sus scrofa)
Sequence (P29804 31-390): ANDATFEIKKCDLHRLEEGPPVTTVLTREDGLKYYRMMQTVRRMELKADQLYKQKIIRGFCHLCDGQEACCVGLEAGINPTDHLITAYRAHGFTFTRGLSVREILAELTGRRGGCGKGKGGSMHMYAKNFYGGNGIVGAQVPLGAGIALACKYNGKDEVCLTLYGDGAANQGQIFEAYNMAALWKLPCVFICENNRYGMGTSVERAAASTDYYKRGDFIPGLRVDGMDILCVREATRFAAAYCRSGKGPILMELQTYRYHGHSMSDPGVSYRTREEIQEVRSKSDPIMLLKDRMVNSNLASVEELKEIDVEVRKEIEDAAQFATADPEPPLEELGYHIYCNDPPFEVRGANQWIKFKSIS
PROTOCOL SUMMARY: PDHc E1 inhibitory activity assay (DCPIP reduction)
Type: biochemical
REPORTED CONDITIONS: increased ThDP: [Compound] = 250 μM, [ThDP] = 125 μM
TEST READOUT: Inhibition (%) PDHc E1

> print(dat)
                                    compound  prefix.operator  result
 1  COc1ccc(-c2cn(CCCc3cn(Cc4cnc(C)nc4N)nn3)nn2)cc1 [Compound 17b]                =      45
 2  COc1ccc(-c2cn(CCc3cn(Cc4cnc(C)nc4N)nn3)nn2)cc1 [Compound 17a]                <      20
 3  Cc1ncc(Cn2cc(CCCCC(=O)NO)nn2)c(N)n1 [Compound 24c]                =      73
 4  Cc1ncc(Cn2cc(CCCCn3cc(-c4ccc(F)cc4)nn3)nn2)c(N)n1 [Compound 16c]                =      79
 5  Cc1ncc(Cn2cc(CCCn3cc(-c4ccccc4)nn3)nn2)c(N)n1 [Compound 15b]                =      40
 6  Cc1ncc(Cn2cc(CCn3cc(-c4ccccc4)nn3)nn2)c(N)n1 [Compound 15a]                <      20
 7  Cc1ncc(Cn2cc(CCCC(=O)NO)nn2)c(N)n1 [Compound 24b]                =      70
 8  Cc1ncc(C[n+]2csc(CCO[P@@](=O)(O)OP(=O)(O)O)c2C)c(O)n1 [OxThDP 7b, oxythiamine diphosphate, reference compound]                =      75
 9  Cc1ncc(Cn2cc(CCCn3cc(-c4ccc(F)cc4)nn3)nn2)c(N)n1 [Compound 16b]                =      43
10  COc1ccc(-c2cn(CCCCc3cn(Cc4cnc(C)nc4N)nn3)nn2)cc1 [Compound 17c]                =      82
11  Cc1ncc(Cn2cc(CCn3cc(-c4ccc(F)cc4)nn3)nn2)c(N)n1 [Compound 16a]                <      20
12  Cc1ncc(Cn2cc(CCCCn3cc(-c4ccccc4)nn3)nn2)c(N)n1 [Compound 15c]                =      75

* * *

SYSTEM: S. cerevisiae PDC (Saccharomyces cerevisiae, UniProt P06169)
Construct: purchased Sigma
Sequence (P06169 2-563 limits assumed): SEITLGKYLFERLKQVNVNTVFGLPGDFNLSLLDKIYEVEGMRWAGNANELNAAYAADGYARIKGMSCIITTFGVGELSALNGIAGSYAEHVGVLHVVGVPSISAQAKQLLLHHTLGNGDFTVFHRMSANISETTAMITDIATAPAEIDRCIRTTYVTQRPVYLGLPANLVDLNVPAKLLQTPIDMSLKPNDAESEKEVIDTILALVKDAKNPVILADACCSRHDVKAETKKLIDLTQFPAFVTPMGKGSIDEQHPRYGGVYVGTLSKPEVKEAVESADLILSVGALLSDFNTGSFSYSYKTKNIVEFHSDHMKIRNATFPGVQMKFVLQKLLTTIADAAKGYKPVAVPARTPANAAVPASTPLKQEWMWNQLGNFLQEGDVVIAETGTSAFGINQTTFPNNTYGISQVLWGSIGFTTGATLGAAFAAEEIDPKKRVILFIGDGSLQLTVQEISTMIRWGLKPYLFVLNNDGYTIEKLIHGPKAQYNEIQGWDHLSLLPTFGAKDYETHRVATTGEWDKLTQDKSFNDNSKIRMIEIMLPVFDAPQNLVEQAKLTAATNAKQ
PROTOCOL SUMMARY: S. cerevisiae PDC inhibitory activity assay (DCPIP reduction)
Type: biochemical
REPORTED CONDITIONS: [Compound] = 1.5 mM, [ThDP] = 0.3 mM; compounds insufficiently soluble were excluded; read-out: Inhibition (%) Yeast PDC
Label Condition met for high-side inhibition at 1500 µM (at or above 40%) and Condition not met for low-side inhibition at 1500 µM (below it).

> print(dat)
                                   molecule                                    system  assigned.category
1             Cc1ncc(Cn2cc(CCCCO)nn2)c(N)n1  S. cerevisiae PDC (Saccharomyces cerevisiae, UniProt P06169)  Condition not met
2  Cc1ncc(Cn2cc(CCNS(=O)(=O)C(F)(F)F)nn2)c(N)n1 [Compound 18a]  S. cerevisiae PDC (Saccharomyces cerevisiae, UniProt P06169)  Condition not met
3  Cc1ncc(Cn2cc(CCCNS(=O)(=O)C(F)(F)F)nn2)c(N)n1 [Compound 18b]  S. cerevisiae PDC (Saccharomyces cerevisiae, UniProt P06169)  Condition not met
4              Cc1ncc(Cn2cc(CCCO)nn2)c(N)n1  S. cerevisiae PDC (Saccharomyces cerevisiae, UniProt P06169)  Condition not met
5  Cc1ncc(Cn2cc(CCNC(=O)c3cccc(C#N)c3)nn2)c(N)n1 [Compound 20a]  S. cerevisiae PDC (Saccharomyces cerevisiae, UniProt P06169)  Condition not met
6  Cc1ncc(Cn2cc(CCCC(=O)NO)nn2)c(N)n1 [Compound 24b]  S. cerevisiae PDC (Saccharomyces cerevisiae, UniProt P06169)      Condition met
7  Cc1ncc(C[n+]2csc(CCO[P@@](=O)(O)OP(=O)(O)O)c2C)c(O)n1 [OxThDP 7b, oxythiamine diphosphate, reference compound]  S. cerevisiae PDC (Saccharomyces cerevisiae, UniProt P06169)      Condition met
8  Cc1ncc(Cn2cc(CCCC(=O)Nc3ccccc3N)nn2)c(N)n1 [Compound 26b]  S. cerevisiae PDC (Saccharomyces cerevisiae, UniProt P06169)  Condition not met
9  Cc1ncc(Cn2cc(CCC(=O)Nc3ccccc3N)nn2)c(N)n1 [Compound 26a]  S. cerevisiae PDC (Saccharomyces cerevisiae, UniProt P06169)  Condition not met

* * *

SYSTEM: E. coli OGDHc E1 (Escherichia coli, UniProt P0AFG3)
Sequence (P0AFG3 1-933): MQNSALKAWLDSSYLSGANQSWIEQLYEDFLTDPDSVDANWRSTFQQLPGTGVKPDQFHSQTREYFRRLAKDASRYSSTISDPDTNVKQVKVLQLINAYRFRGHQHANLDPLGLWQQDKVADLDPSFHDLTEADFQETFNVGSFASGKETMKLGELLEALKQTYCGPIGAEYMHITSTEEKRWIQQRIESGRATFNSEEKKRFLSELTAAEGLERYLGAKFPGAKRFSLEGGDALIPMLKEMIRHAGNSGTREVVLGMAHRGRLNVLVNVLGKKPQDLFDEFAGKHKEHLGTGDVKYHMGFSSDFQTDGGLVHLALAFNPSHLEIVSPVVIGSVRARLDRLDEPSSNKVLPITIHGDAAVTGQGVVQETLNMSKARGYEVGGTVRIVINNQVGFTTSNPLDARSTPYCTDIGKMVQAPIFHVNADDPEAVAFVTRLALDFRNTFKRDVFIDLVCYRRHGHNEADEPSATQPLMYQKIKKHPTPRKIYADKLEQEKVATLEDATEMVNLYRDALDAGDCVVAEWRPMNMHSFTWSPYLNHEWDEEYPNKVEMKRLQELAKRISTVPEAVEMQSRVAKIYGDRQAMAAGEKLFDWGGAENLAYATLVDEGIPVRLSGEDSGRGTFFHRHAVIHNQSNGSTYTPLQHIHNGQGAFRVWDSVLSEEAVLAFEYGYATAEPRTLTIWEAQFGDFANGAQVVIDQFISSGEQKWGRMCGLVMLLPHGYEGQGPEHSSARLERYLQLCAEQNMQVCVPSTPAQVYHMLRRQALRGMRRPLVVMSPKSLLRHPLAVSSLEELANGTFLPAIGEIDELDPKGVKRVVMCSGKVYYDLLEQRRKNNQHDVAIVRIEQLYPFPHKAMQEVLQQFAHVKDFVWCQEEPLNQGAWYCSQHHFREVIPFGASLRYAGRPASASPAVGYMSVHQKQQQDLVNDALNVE
PROTOCOL SUMMARY: E. coli OGDHc E1 inhibitory activity assay (DCPIP reduction)
Type: biochemical
REPORTED CONDITIONS: increased ThDP: [Compound] = 250 μM, [ThDP] = 125 μM
# Lookup of reported inhibition at 250 µM keyed by entry
TEST READOUT: inhibition at 250 µM

> print(dat)
                                    compound  result
 1  COc1ccc(-c2cn(CCCc3cn(Cc4cnc(C)nc4N)nn3)nn2)cc1 [Compound 17b]   < 20%
 2  Cc1ncc(Cn2cc(CCCCn3cc(-c4ccccc4)nn3)nn2)c(N)n1 [Compound 15c]   < 20%
 3  Cc1ncc(Cn2cc(CCCCC(=O)NO)nn2)c(N)n1 [Compound 24c]     82%
 4  Cc1ncc(Cn2cc(CCCn3cc(-c4ccc(F)cc4)nn3)nn2)c(N)n1 [Compound 16b]   < 20%
 5  COc1ccc(-c2cn(CCCCc3cn(Cc4cnc(C)nc4N)nn3)nn2)cc1 [Compound 17c]   < 20%
 6  Cc1ncc(Cn2cc(CCn3cc(-c4ccc(F)cc4)nn3)nn2)c(N)n1 [Compound 16a]   < 20%
 7  Cc1ncc(C[n+]2csc(CCO[P@@](=O)(O)OP(=O)(O)O)c2C)c(O)n1 [OxThDP 7b, oxythiamine diphosphate, reference compound]     41%
 8  Cc1ncc(Cn2cc(CCn3cc(-c4ccccc4)nn3)nn2)c(N)n1 [Compound 15a]   < 20%
 9  Cc1ncc(Cn2cc(CCCC(=O)NO)nn2)c(N)n1 [Compound 24b]     78%
10  Cc1ncc(Cn2cc(CCCn3cc(-c4ccccc4)nn3)nn2)c(N)n1 [Compound 15b]   < 20%
11  COc1ccc(-c2cn(CCc3cn(Cc4cnc(C)nc4N)nn3)nn2)cc1 [Compound 17a]   < 20%
12  Cc1ncc(Cn2cc(CCCCn3cc(-c4ccc(F)cc4)nn3)nn2)c(N)n1 [Compound 16c]   < 20%
